The reported numbers originate from patent US20160264649A1.

- Experimental system: HIV-1 Env of isolate MGRM-F1-006 (subtype F) (HIV-1)
- Assay name: cell-based or functional assay
Measurement kind: IC50 (neutralization)

[
  {
    "Binder": "PGT-127 (antibody, V domains shown) VH: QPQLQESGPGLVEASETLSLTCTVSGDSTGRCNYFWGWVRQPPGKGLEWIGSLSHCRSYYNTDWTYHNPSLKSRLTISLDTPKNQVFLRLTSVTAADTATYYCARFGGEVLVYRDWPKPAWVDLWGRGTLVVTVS VL: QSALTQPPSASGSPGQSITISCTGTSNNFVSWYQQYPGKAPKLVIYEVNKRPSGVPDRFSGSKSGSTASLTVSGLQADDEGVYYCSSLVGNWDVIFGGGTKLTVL",
    "Measured result": "7.17 µg/mL"
  },
  {
    "Binder": "PGT-131 (antibody, V domains shown) VH: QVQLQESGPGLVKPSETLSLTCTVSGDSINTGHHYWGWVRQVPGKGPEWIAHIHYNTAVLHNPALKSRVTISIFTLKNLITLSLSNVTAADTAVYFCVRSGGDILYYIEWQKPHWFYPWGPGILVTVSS VL: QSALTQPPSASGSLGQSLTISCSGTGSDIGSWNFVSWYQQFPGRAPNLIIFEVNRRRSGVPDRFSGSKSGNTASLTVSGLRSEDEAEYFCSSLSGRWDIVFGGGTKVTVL",
    "Measured result": "> 50 µg/mL"
  }
]
